- assayed target: T1, full length human DLL4 (human, UniProt Q9NR61 27-685)
- T1 construct: whole, on cells; also called native DLL4 expressed in HEK293 cells
- T1 sequence (Q9NR61 27-685): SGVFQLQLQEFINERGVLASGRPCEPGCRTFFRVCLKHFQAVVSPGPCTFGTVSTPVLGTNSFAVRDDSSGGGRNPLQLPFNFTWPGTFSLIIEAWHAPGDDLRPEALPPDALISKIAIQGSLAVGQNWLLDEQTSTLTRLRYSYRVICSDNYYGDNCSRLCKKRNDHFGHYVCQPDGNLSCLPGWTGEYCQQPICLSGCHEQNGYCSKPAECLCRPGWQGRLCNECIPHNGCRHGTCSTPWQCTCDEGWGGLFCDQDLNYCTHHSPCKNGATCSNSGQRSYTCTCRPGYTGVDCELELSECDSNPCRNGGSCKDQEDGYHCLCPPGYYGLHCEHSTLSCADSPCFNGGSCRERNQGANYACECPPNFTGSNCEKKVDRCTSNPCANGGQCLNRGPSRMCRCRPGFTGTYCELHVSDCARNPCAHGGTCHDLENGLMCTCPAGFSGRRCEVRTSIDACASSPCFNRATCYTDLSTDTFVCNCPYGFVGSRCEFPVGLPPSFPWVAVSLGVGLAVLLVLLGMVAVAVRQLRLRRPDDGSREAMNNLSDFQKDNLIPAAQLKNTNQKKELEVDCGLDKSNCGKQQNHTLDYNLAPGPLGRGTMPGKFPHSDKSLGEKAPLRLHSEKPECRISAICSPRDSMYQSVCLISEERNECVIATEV
- method: FMAT, hybridoma supernatant, 293T cells with human DLL4
measure name: FL1 x count
Please reply with the number alone, leaving off any unit.

For orientation, consider the following solved cases.
1E4 (antibody, IgG2, V domains shown, Fully human; also used where no isotype is printed) VH: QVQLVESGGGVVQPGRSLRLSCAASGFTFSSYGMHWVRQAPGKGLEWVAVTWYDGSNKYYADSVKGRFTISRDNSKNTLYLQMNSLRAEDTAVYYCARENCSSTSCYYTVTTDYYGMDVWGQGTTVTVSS VL: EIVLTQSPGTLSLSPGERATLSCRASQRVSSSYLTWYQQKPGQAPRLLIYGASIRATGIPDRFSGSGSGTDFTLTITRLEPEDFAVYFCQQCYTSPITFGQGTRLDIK
2.14e+06
17F3 (antibody, IgG2, V domains shown, Fully human; also used where no isotype is printed) VH: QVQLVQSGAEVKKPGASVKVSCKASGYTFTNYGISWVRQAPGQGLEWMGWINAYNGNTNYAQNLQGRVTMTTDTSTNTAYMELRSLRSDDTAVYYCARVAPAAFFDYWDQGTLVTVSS VL: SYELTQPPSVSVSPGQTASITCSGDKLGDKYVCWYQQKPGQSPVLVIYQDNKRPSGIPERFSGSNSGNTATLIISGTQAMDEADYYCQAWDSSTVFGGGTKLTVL
2.47e+06

The reported value for 2H10 (antibody, IgG4, V domains shown, Fully human; used for IgG4 rows and where no isotype is printed; also called 2H10 IgG4) VH: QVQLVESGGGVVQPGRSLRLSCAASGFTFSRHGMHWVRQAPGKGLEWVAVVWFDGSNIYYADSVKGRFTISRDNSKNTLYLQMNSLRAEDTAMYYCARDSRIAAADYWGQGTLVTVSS VL: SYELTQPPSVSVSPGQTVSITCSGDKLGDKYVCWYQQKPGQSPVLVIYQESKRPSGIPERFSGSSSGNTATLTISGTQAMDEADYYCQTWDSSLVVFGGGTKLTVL in terms of FL1 x count is 2.06e+06

// field: FL1 x count; key: 4B3 (antibody, IgG4, V domains shown, Fully human; also used where no isotype is printed) VH: QVQLVQSGAEVRKSGASVKVSCKASGYSFTTYDINWVRQATGQGLEWMGWMNPNSGYTDYAQKFQGRVTLTRNMSIDTAYMELSSLRSEDTAVYYCARAYYYDSSAYYLFDYWGQGTLVTVSS VL: DIQMTQSPSSLSASVGDRVTITCRASQGISNYLAWFQQKPGKAPKSLIYAASSLQSGVPSKFSGSGSGTDFTLTISSLQPEDFATYFCQQYISYPLTFGGGTKVEI ; value = 2.27e+06

Reported FL1 x count ( 12A1 (antibody, IgG4, V domains shown, Fully human; also used where no isotype is printed) VH: QVQLVQSGAEVKRPGASVKVSCKASGYTFTSYGITWVRQAPGQGLEYMGWISTYNGNTDYAQKFQGRVTMTADISTSTAYMELRSLRSDDTAVYYCARERGSYFDYWGQGTLVTVSS VL: SYELTQPPSVSVSPGQTARITCSGDTLPKKYAYWYQQKSGQAPVLVIYEDIKRPSGIPERFSGSSSGTMATLTISGAQVEDEADYYCFSTDSGGNHKFGGGTKLTVL ) = 1.76e+06
